B1: MFF (parent)
chain: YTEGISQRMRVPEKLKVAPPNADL

variants of: B1; assay: protein stability index of a GFP-peptide fusion (GPS, HEK-293T) (PSI 1-6); higher = more stable; details: c terminus: a fixed tail appended;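 note: lentivirally expressed fusions sorted by FACS into six bins by GFP to DsRed ratio, PSI derived from sequencing read proportions per bin multiplied by bin number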
Reported protein stability index values follow for various variants

# Mutation List, protein stability index
data = [
    ("L15H", 2.91),
    ("I5R", 3.78),
    ("P19T", 2.51),
]

variant `G4R` , protein stability index observed: 3.72

Form field protein stability index, entry `A18L` : 2.88

The variant `N21C` showed protein stability index equal to 2.33

Entry `T2M` ; protein stability index = 3.46

The recorded protein stability index for entry `V17E` equals 3.25

# protein stability index of `M9W` = 2.01

// protein stability index value for `S6E` : 3.91

Record `E13V` . Reported protein stability index: 2.79

Quick note, protein stability index for `T2C` landed at 2.65

In plain terms, `K14M` has a documented protein stability index of 3.39

The variant listed as `Y1M` shows protein stability index equal to 4.59

Record summary for `V17C` : reported protein stability index = 2.18

GET /value?item= `R8A` &field=protein stability index returns 2.82

Entry `E13N` , protein stability index reported as 2.53

Recorded protein stability index (variant `S6K` ): 2.45

// protein stability index lookup, variant = `P20G` , result: 2.91
